Below is a list of entries, each paired with its recorded percent inhibition of cell viability at 4 µM value.
system: A2780 cells; experiment: Cell Viability Assay (ATPlite 1step), A2780; type: cell-based; conditions: Homo sapiens; A2780, 4 uM compound, 72 hours; read-out: Cell Viability % inhibition A2780 (4 uM Cpd)

1. Cc1ncc(C(=O)Nc2ccc(-c3csc(C)c3)cn2)cn1 [Compound 62]; 85.2%

API: value(readout=percent inhibition of cell viability at 4 µM, system=A2780 cells) for record O=C(Nc1ccc(-c2cccs2)cn1)c1cccnc1 [Compound 11]
85%

Input COc1ncc(C(=O)Nc2ccc(-c3cccc(C4CC4)c3)cn2)cn1 [Compound 59]
87.8%

How about this compound: O=C(Nc1ccc(-c2cccc(C3CC3)c2)cn1)c1cncnc1 [Compound 16]
90.4%

Let us now turn to O=C(Nc1ccc(C2CC2)cn1)c1cncnc1 [Compound 6]
75.5%
